Reported inhibition values follow for various compounds
Biological target: Serine/threonine-protein kinase PAK 3 (Homo sapiens) (UniProt O75914);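 note: reported percentage is a mean inhibition value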
Sequence (O75914 whole entry, looked up): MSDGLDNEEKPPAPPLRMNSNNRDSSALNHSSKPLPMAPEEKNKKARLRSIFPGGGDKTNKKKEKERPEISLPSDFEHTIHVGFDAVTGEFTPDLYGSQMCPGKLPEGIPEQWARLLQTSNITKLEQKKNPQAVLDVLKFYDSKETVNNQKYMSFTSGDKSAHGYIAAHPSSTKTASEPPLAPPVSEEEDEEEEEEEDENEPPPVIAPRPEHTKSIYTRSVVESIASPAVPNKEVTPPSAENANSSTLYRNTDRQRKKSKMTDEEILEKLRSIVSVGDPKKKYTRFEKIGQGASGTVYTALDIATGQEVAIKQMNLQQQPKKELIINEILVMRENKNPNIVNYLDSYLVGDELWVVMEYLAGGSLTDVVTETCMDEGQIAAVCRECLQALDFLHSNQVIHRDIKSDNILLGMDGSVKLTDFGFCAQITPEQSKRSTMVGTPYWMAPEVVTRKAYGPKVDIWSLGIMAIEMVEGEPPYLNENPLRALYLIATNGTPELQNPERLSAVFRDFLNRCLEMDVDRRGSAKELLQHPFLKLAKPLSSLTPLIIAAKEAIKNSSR
Settings: at 1 µM

| compound | unit spec | inhibition |
| --- | --- | --- |
| CCN1CCC(CC(=O)Nc2n[nH]c3nc(-c4cccs4)c(Br)cc23)CC1 | % | -3.03 |
| CCn1c(-c2nonc2N)nc2c(C#CC(C)(C)O)nc(CN3CCCC3)cc21 | % | 0.31 |
| Nc1nc(-c2ccc3c(c2)C(=Cc2cc(Br)c(O)c(Br)c2)C(=O)N3)cs1 | % | -1.99 |
| COc1cc2c(cc1Nc1nc(N3CCc4ccccc43)c3cc[nH]c3n1)N(C(=O)CN(C)C)CC2 | % | 2.24 |
| CCn1c(-c2nonc2N)nc2c(N3CCCC3)nccc21 | % | -1.25 |
| COC(=O)Nc1nc2cc(Oc3cccc(NC(=O)Nc4cc(C(F)(F)F)ccc4F)c3)ccc2[nH]1 | % | -1.11 |
| CC1=C(C(=O)Nc2ccc3[nH]ncc3c2)C(c2ccc(F)cc2)NC(=O)N1 (configuration not stated) | % | 1.55 |
